Target Under Test: Protein translocase subunit SecA (Escherichia coli (strain K12)) (UniProt P10408)
Sequence (P10408 whole entry): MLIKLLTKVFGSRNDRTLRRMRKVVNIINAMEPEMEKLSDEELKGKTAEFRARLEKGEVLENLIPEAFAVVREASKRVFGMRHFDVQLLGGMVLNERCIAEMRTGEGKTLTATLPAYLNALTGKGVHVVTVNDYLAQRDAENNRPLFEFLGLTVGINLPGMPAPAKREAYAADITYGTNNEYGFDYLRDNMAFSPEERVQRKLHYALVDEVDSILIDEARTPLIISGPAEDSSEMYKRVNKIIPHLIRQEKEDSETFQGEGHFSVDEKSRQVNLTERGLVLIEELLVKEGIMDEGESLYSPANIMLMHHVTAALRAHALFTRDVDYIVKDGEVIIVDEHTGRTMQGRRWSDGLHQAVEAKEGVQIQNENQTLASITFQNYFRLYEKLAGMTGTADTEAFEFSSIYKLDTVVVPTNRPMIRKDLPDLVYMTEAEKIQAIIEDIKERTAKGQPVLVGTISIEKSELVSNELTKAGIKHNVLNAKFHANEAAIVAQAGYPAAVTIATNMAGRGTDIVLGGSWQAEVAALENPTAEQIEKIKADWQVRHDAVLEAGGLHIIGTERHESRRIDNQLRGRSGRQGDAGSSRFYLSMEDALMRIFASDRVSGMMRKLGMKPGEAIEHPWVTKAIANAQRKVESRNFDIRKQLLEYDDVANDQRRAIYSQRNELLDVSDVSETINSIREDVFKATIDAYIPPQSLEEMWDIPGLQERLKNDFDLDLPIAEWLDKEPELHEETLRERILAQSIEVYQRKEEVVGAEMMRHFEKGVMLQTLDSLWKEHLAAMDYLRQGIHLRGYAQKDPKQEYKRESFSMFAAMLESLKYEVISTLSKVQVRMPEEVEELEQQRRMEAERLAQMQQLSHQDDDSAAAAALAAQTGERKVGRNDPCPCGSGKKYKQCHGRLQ
Assay Info: Assay to Identify E. coli SecA ATPase Inhibitors
Type: functional
Design: scale not given: direction of the effect not stated beside the values
Particulars: 30 µM
Entries with a potency or affinity are not part of this list.
Quantity Kind: Percent Effect (%)
Use % as the unit, but write only the number.

| Compound | Percent Effect [%] |
| --- | --- |
| CC(=O)N1CCCC(c2cnc(-c3c(C)nn(C)c3C)cn2)C1 (stereo unspecified) | -2.17 |
| Cc1cc(CN2CCN(C(=O)NCc3ccc(C)s3)CC2)no1 | -0.722 |
| Cc1noc(C)c1C(=O)N1CCCC1c1c(C)nn(C)c1Cl (stereo unspecified) | -4.44 |

Q: Which Percent Effect value is on record for c1cnnc(N2CCCC2CNc2ncnc3ccccc23)c1 (stereo unspecified) ?
A: -3.22

Q: Which Percent Effect value is on record for `Cc1cc(F)ccc1OC1(C(=O)O)CCN(Cc2cccnc2N)CC1` ?
A: -6.33

Q: Which Percent Effect value is on record for O=C(C1CC1)N1CCC(c2nc(O)c3c(n2)CCN(C2CCCC2)C3)C1 (stereo unspecified) ?
A: -5.51

Q: Which Percent Effect value is on record for CC(C)N1CCC(N2CCN(C3CCC3)CC2CCO)CC1 (stereo unspecified) ?
A: -2.22

Q: Which Percent Effect value is on record for COc1c(CNCC(c2cccc(F)c2)N(C)C)c(C(C)C)nn1C (stereo unspecified) ?
A: -2.21

Q: Which Percent Effect value is on record for Cc1nccn1C1CCCN(C(=O)c2ccc3c(c2)nnn3C)C1 (stereo unspecified) ?
A: -3.52

Q: Which Percent Effect value is on record for `CCn1nc(C)c2nc(C(C)C)nc(NCCCO)c21` ?
A: -2.47

Q: Which Percent Effect value is on record for CCCn1nc(C)c(CNC(=O)C2COc3c(cccc3OC)C2)c1C (stereo unspecified) ?
A: -3.57

Entry source: ChEMBL document CHEMBL3988442
